Listing of recorded β1-action ED50bpm by entry.
# targetUnderTest: β1 (Canis lupus familiaris)
# Construct: Mongrel dogs of either sex; from tissue; host or cells: heart of the living anesthetized mongrel dog (heart rate)
# Sequence (P79148 whole entry): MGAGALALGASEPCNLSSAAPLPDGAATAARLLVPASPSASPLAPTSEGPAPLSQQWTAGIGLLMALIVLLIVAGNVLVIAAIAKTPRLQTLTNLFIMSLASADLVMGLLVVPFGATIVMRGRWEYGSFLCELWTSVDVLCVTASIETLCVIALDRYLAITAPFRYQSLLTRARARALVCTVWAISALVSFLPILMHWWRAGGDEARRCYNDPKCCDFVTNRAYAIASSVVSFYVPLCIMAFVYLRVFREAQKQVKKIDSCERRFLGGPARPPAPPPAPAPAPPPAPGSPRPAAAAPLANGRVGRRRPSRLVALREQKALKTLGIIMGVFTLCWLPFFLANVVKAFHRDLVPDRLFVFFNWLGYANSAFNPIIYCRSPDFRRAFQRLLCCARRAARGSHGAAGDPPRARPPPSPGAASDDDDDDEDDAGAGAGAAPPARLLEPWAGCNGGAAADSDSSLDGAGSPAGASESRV
# protocol: β1-action: heart rate response (ΔHR) in anesthetized dogs
# Type: in vivo, Mongrel dogs
# protocolConditions: intravenous

[
  {
    "compound": "COc1ccc(CC(C)NCC(O)c2ccc(O)c(NC=O)c2)cc1 (single isomer, unassigned) [Example 22]",
    "β1-action ED50bpm, µg/kg": 0.72
  },
  {
    "compound": "CC(Cc1ccc(O)cc1)NCC(O)c1ccc(O)c(NC=O)c1 (single isomer, unassigned) [Example 8]",
    "β1-action ED50bpm, µg/kg": 0.26
  },
  {
    "compound": "CC(CCc1ccc(O)cc1)NCC(O)c1ccc(O)c(NC=O)c1 (stereo not shown) [Example 19]",
    "β1-action ED50bpm, µg/kg": 0.59
  },
  {
    "compound": "CC(C)(C)NCC(O)c1ccc(O)c(CO)c1 (stereo not shown) [Known compound D]",
    "β1-action ED50bpm, µg/kg": 7.0
  }
]

---

Listing of recorded EC50 by entry.
# Test system: isolated bronchial smooth muscle
# protocol: Activity on isolated bronchial smooth muscle (in vitro test), methacholine chloride as spasmogen (Anti-methacholine Chloride)
# Format: cell-based, guinea pig
# protocolConditions: Cavia porcellus; concentration producing 50% relaxation of contracted bronchial muscle; 10^-5 g/ml methacholine chloride; guinea pig trachea, 37° C; read-out: Anti-methacholine Chloride ED50
Counter-ions that a name gives are not always drawn.
measuredParameter: EC50 (µg/mL)

[
  {
    "molecule": "CC(C)NCC(O)c1ccc(O)c(O)c1 (stereo not shown)",
    "measuredParameter": "EC50",
    "ltGtEq": "=",
    "experimentalResult": 0.028
  },
  {
    "molecule": "CC(CCc1ccc(O)cc1)NCC(O)c1ccc(O)c(NC=O)c1 (stereo not shown)",
    "measuredParameter": "EC50",
    "ltGtEq": "=",
    "experimentalResult": 0.0089
  },
  {
    "molecule": "CC(C)(C)NCC(O)c1ccc(O)c(CO)c1 (stereo not shown)",
    "measuredParameter": "EC50",
    "ltGtEq": "=",
    "experimentalResult": 0.096
  },
  {
    "molecule": "CCOC(=O)Nc1cc(C(O)CNC(C)C)ccc1O (stereo not shown)",
    "measuredParameter": "EC50",
    "ltGtEq": ">",
    "experimentalResult": 100
  },
  {
    "molecule": "CC(=O)Nc1cc(C(O)CNC(C)C)ccc1O.Cl (stereo not shown)",
    "measuredParameter": "EC50",
    "ltGtEq": ">",
    "experimentalResult": 100
  },
  {
    "molecule": "CNC(=O)Nc1cc(C(O)CNC(C)C)ccc1O (stereo not shown)",
    "measuredParameter": "EC50",
    "ltGtEq": ">",
    "experimentalResult": 100
  },
  {
    "molecule": "COc1cc(C[C@@H]2NCCc3cc(O)c(O)cc32)cc(OC)c1OC [Known compound E, hydrochloride]",
    "measuredParameter": "EC50",
    "ltGtEq": "=",
    "experimentalResult": 0.021
  }
]
